Please provide measured IC50 for the entries that follow.
# tested.on: Bromodomain-containing protein 4 (Homo sapiens)
# assay.overview: Displacement of FAM-labeled ZBA248 from BRD4 BD1 (44 to 168 amino acid residues) (unknown origin) expressed in Rosetta2 DE3 cells after 30 mins by fluorescence polarization assay

response.value for CCc1noc(CC)c1-c1cc2[nH]c3ccnc(Cl)c3c2cc1OC (field: IC50) = > 10 µM

response.value for COc1cc2c(cc1-c1c(C)n[nH]c1C)[nH]c1ccnc(Cl)c12 (field: IC50) = 4.87 µM

response.value for COc1cc2c(cc1-c1c(C)noc1C)[nH]c1ccnc(-c3c(C)noc3C)c12 (field: IC50) = 0.134 µM

response.value for CCc1onc(C)c1-c1cc2[nH]c3ccnc(Cl)c3c2cc1OC (field: IC50) = 9.44 µM

====

# tested.on: Bromodomain-containing protein 4 (Homo sapiens, UniProt O60885)
# assay.overview: Displacement of FAM-labeled ZBA248 from BRD4 BD1 (44 to 168 amino acid residues) (unknown origin) expressed in Rosetta2 DE3 cells after 30 mins by fluorescence polarization assay
metric: Ki

response.value for CCc1noc(CC)c1-c1cc2[nH]c3ccnc(Cl)c3c2cc1OC (field: Ki) = > 10000 nM

response.value for CCc1n[nH]c(CC)c1-c1nccc2[nH]c3cc(-c4c(C)noc4C)c(OC)cc3c12 (field: Ki) = 44.1 nM

response.value for COc1cc2c(cc1-c1c(C)n[nH]c1C)[nH]c1ccnc(Cl)c12 (field: Ki) = 1730 nM

response.value for COc1cc2c(cc1-c1c(C)noc1C)[nH]c1ccnc(-c3c(C4CC4)n[nH]c3C)c12 (field: Ki) = 24.7 nM

response.value for CCc1noc(C)c1-c1cc2[nH]c3ccnc(Cl)c3c2cc1OC (field: Ki) = 1240 nM
